# Test system: SW-620 colon
# experiment summary: NCI-60 one-dose screen, 48 h
# condition: 10 µM unless noted
About 83,000 compounds went through this panel and 20% of them were active in at least one assay; those are over-represented in the sample as a whole. Active and inactive are the calls of the source. How the source made its calls: active means growth percent below 10; inactive means the rest.
Hello, when you answer, please use one of the following outcomes: T (active), F (inactive)

compound: CC(C)(C)n1cc(-c2ccnc(NCCCNS(=O)(=O)c3ccc(F)cc3)c2)c(-c2cccc(F)c2)n1
group: F

Prompt: Field: outcome | Entry: O=C(O)[C@@H]1c2ccccc2-c2ccccc2[C@H]1C(=O)O
Completion: F

Prompt: Field: outcome | Entry: O=C(CSc1nc(-c2ccccc2)[nH]c1S(=O)(=O)c1ccccc1)NC1CC1
Completion: F

Prompt: Field: outcome | Entry: N#Cc1cccc(NC(=O)c2oc3ccccc3c2-c2cnn(-c3ccccc3)c2)c1
Completion: F

Prompt: Field: outcome | Entry: CC1(C)CC[C@]2(C(=O)O)CC[C@]3(C)C(=CC[C@@H]4[C@@]5(C)C/C(=C/O)C(=O)C(C)(C)[C@@H]5CC[C@]43C)[C@@H]2C1
Completion: F

Prompt: Field: outcome | Entry: CC(C)N1CCN(Cc2ccc3c(NNC(=O)c4ccccc4)nc4cc(F)ccc4n23)CC1
Completion: F

Prompt: Field: outcome | Entry: O=c1oc2ccc([N+](=O)[O-])cc2cc1Br
Completion: F

Prompt: Field: outcome | Entry: O=C(CSc1nc2ccc([N+](=O)[O-])cc2[nH]1)Nc1ccc(F)cc1
Completion: F

Prompt: Field: outcome | Entry: CCNC(=O)c1[nH]cc(-c2ccccc2)c1-c1cc(OC)c2c(c1OC)OCO2
Completion: F

Prompt: Field: outcome | Entry: Cc1nc2ncnc(Cl)c2[nH]1
Completion: F

Prompt: Field: outcome | Entry: O=C(CCCCC1CCSS1)Nc1ncnc2n[nH]c(-c3ccc(Oc4ccccc4)cc3)c12 (centres undefined)
Completion: F

Prompt: Field: outcome | Entry: O=S(=O)(NCCNc1nccc(-c2c(-c3cccc(F)c3)nc3occn23)n1)c1ccc(Br)cc1
Completion: F
